Biological target: T1, soluble HIR ectodomain (sIR) (human, UniProt P06213 28-956, limits assumed)
T1 construct: extracellular domain
Assay: FP on sIR, competitor FITC-RP9
Measured IC50 accompanies every entry in the list below.

S337 (C-terminal Lig′ joined to chemical linker 23, C-C dimer through chemical linker 23; also called (RP9-Lig)2-23) peptide 1: GSLDESFYDWFERQLGKKX peptide 2: GSLDESFYDWFERQLGKKX = 0.2 nM
FHENFYDWFVRQVSKK (also called D117) [H2C] = 37 nM
S380 (C-terminal Lig′ joined to chemical linker 9, C-C dimer through chemical linker 9; also called (EE-short-S175-Lig)2-9) peptide 1: EEDWLQRNANFYDWFVAELX peptide 2: EEDWLQRNANFYDWFVAELX = 0.5 nM

Would you kindly look at the next entry?
Answer with reported IC50 of S414 (C-terminal Lig′ joined to chemical linker 14, Lig′ = lysine with a 2-aminohydroxyacetyl group on the side chain amino group; also called (truncated(-GSLD)RP9(-KK))2-14) peptide 1: ESFYDWFERQLGKX peptide 2: ESFYDWFERQLGKX
0.2 nM

Reference source for all entries: patent US20070265189A1
